Where do the numbers come from? From patent US20100022559A1.

experiment: logP determination by HPLC on a reversed-phase column (C 18), EEC Directive 79/831 Annex V.A8; type: physicochemical; conditions: value marked [c]
logP by entry:

Consider the reported logP for these compounds:
[
  {
    "Compound": "CC(=NOCC(C)(C)CON=C(c1ccccc1)c1cccc(C)n1)c1cccc(C)n1 (single isomer, unassigned) [compound 879]",
    "logP": "4.52^[c]"
  },
  {
    "Compound": "CC(=NOCC1(CON=C(C)c2nc(C)ccc2C)CCCC1)c1nc(C)ccc1C (single isomer, unassigned) [compound 762]",
    "logP": "5.14^[c]"
  },
  {
    "Compound": "CCC(C)(CON=C(C)c1cccc(C)n1)CON=C(C)c1cccc(C)n1 (centres unmarked) [Compound 788]",
    "logP": "6.47^[c]"
  },
  {
    "Compound": "CC(=NOCC1(CON=C(C)c2ccc(C)c(C)n2)COC(=O)N1)c1ccc(C)c(C)n1 (centres unmarked) [compound 857]",
    "logP": "3.70^[c]"
  },
  {
    "Compound": "CC(=NOCC(O)CON=C(C)c1ccc(C)c(C)n1)c1ccc(C)c(C)n1 (centres unmarked) [compound 323]",
    "logP": "3.81^[c]"
  }
]

Entry CC(=NOCC(C)CON=C(C)c1cc(Cl)cc(C)n1)c1cc(Cl)cc(C)n1 (centres unmarked) [compound 792] — recorded logP = 7.36^[c]

Entry COc1cc(C)nc(C(C)=NOCC2(CON=C(C)c3cc(OC)cc(C)n3)CC2)c1 [Compound 816] — recorded logP = 4.94^[c]

Entry CCOC(=O)C(C)(CON=C(C)c1cc(C)cc(C)n1)CON=C(C)c1cc(C)cc(C)n1 (centres unmarked) [compound 855] — recorded logP = 5.72^[c]
